# system.under.test: brain CCK receptor (Mus musculus)
# Construct: from tissue; host or cells: forebrain membranes of male CF-1 mice
# method.notes: CCK receptor binding, mouse brain membranes (125I-CCK-8 sulfate)
# test.parameters: mouse brain membranes; read-out: Brain IC50
result.type: IC50 (nM)

# compound, recorded.value
data = [
    ("O=C1NN(C(=O)Nc2ccc(Br)cc2)C(c2ccc([N+](=O)[O-])cc2)C1c1ccccc1 (stereo not shown)", 1200),
    ("O=C1NN(C(=O)Nc2ccc(F)c(Cl)c2)[C@H](c2ccccc2)[C@H]1c1ccccc1 (relative stereo)", 390),
    ("O=C1NN(C(=O)NCCc2ccccc2)[C@@H](c2ccccc2)[C@@H]1c1ccccc1 (relative stereo)", 490),
    ("O=C1NN(C(=O)Nc2ccc3ncccc3c2)[C@@H](c2ccccc2)[C@@H]1c1ccccc1 (relative stereo)", 290),
]

----------
A collection of compounds and their measured pIC50
# system.under.test: peripheral type CCK receptors in rat pancreas (Rattus norvegicus, UniProt P30551)
pIC50: −log10 of the molar value.

# compound, system.under.test, pIC50
data = [
    ("O=C1NN(C(=S)Nc2ccc(Cl)c(C(F)(F)F)c2)[C@@H](c2ccccc2)[C@@H]1c1ccccc1 (single isomer, unassigned) [Example 143]", "peripheral type CCK receptors in rat pancreas (Rattus norvegicus, UniProt P30551)", 6.09),
    ("O=C1NN(C(=O)Nc2ccc(Br)cc2)C(c2ccccc2)C1c1ccccc1Cl (stereo not shown) [Example 122]", "peripheral type CCK receptors in rat pancreas (Rattus norvegicus, UniProt P30551)", 5.07),
    ("O=C1NN(C(=S)Nc2cnc3ccccc3c2)[C@@H](c2ccccc2)[C@@H]1c1ccccc1 (relative stereo) [Example 137]", "peripheral type CCK receptors in rat pancreas (Rattus norvegicus, UniProt P30551)", 7.49),
    ("O=C1NN(C(=S)NCc2ccc(Cl)c(Cl)c2)[C@@H](c2ccccc2)[C@@H]1c1ccccc1 (relative stereo) [Example 138]", "peripheral type CCK receptors in rat pancreas (Rattus norvegicus, UniProt P30551)", 7.16),
]

----------
Listing: IC50 of selected molecules
# system.under.test: gastrin receptor (Cavia porcellus)
# Construct: Guinea pig stomach fundus was obtained from male Hartley guinea pigs; from tissue; host or cells: stomach fundus mucosal membranes of male Hartley guinea pigs
# Sequence (H0VZC5 1-426): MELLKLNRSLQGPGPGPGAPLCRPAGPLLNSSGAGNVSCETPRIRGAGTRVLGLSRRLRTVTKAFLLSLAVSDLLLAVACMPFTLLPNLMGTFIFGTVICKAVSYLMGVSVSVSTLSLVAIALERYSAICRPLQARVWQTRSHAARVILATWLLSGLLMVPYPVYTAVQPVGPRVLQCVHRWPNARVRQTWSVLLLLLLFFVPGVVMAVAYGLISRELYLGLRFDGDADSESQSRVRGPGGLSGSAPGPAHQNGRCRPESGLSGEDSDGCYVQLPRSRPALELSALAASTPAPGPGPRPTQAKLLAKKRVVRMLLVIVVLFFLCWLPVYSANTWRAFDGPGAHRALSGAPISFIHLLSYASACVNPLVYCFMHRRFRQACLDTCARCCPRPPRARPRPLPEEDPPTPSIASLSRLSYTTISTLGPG
# method.notes: Gastrin binding to guinea pig stomach mucosal membranes (125I-gastrin I)

# molecule, IC50, nM
data = [
    ("N#Cc1cccc(C2C(c3ccccc3)C(=O)NN2C(=O)Nc2ccc(C(F)(F)F)cc2)c1 (centres unmarked)", 610),
    ("O=C1NN(C(=O)Nc2ccc(C(F)(F)F)cc2)C(c2ccccc2)C1c1ccccc1Cl (centres unmarked)", 100),
]

----------
Overview of reported inhibition at 10 µM across a group of molecules:
# system.under.test: brain CCK receptor (Mus musculus)
# Construct: from tissue; host or cells: forebrain membranes of male CF-1 mice
# Sequence (P56481 1-453): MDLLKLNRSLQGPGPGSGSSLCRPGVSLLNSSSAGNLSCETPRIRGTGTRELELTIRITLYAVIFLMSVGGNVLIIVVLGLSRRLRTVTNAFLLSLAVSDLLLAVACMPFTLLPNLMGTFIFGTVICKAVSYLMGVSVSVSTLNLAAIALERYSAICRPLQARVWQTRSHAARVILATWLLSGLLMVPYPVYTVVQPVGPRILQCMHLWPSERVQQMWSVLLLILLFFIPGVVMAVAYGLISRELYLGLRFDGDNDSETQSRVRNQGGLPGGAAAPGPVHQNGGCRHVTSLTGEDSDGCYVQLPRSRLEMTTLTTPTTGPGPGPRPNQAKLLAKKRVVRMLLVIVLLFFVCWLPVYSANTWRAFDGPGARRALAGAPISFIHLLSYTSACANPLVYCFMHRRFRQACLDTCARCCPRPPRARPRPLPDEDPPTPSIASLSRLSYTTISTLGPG
# method.notes: CCK receptor binding, mouse brain membranes (125I-CCK-8 sulfate)
# test.parameters: at 10 μM; read-out: Brain Percent Inhibition
result.type: inhibition at 10 µM (%)

# molecule, system.under.test, result.type, recorded.value
records = [
    ("O=C1NN(C(=O)c2ccc(Cl)c(Cl)c2)[C@H](c2ccccc2)[C@H]1c1ccccc1 (relative stereo) [Example 75]", "brain CCK receptor (Mus musculus)", "inhibition at 10 µM", 60),
    ("O=C1NN(C(=O)Sc2ccc(Br)cc2)[C@@H](c2ccccc2)[C@@H]1c1ccccc1 (relative stereo) [Example 81]", "brain CCK receptor (Mus musculus)", "inhibition at 10 µM", 95),
    ("O=C1NN(c2nc3ccccc3o2)[C@@H](c2ccccc2)[C@@H]1c1ccccc1 (relative stereo) [Example 87]", "brain CCK receptor (Mus musculus)", "inhibition at 10 µM", 47),
    ("O=C1NN(C(=S)Nc2c(F)c(F)c(F)c(F)c2F)[C@H](c2ccccc2)[C@H]1c1ccccc1 (relative stereo) [Example 65]", "brain CCK receptor (Mus musculus)", "inhibition at 10 µM", 50),
    ("Cc1cccc(NC(=O)N2NC(=O)[C@H](c3ccccc3)[C@H]2c2ccccc2)c1 (relative stereo) [Example 41]", "brain CCK receptor (Mus musculus)", "inhibition at 10 µM", 57),
    ("O=C1NN(C(=O)Cc2ccc(C(F)(F)F)cc2)[C@H](c2ccccc2)[C@H]1c1ccccc1 (relative stereo) [Example 77]", "brain CCK receptor (Mus musculus)", "inhibition at 10 µM", 56),
    ("O=C1NN(C(=O)Nc2ccncc2)[C@@H](c2ccccc2)[C@@H]1c1ccccc1 (relative stereo) [Example 89]", "brain CCK receptor (Mus musculus)", "inhibition at 10 µM", 34),
    ("O=C1NN(C(=O)Cc2cccc(C(F)(F)F)c2)[C@H](c2ccccc2)[C@H]1c1ccccc1 (relative stereo) [Example 76]", "brain CCK receptor (Mus musculus)", "inhibition at 10 µM", 55),
    ("O=C1NN(C(=S)Nc2cccc(C(F)(F)F)c2)[C@H](c2ccccc2)[C@H]1c1ccccc1 (relative stereo) [Example 61]", "brain CCK receptor (Mus musculus)", "inhibition at 10 µM", 56),
    ("O=C1NN(C(=O)c2cccc(C(F)(F)F)c2)[C@@H](c2ccccc2)[C@@H]1c1ccccc1 (relative stereo) [Example 5]", "brain CCK receptor (Mus musculus)", "inhibition at 10 µM", 77),
    ("O=C1NN(C(=O)Oc2ccccc2)[C@@H](c2ccccc2)[C@@H]1c1ccccc1 (relative stereo) [Example 79]", "brain CCK receptor (Mus musculus)", "inhibition at 10 µM", 43),
]

----------
# maps each entry to its inhibition at 10 µM
# system.under.test: peripheral type CCK receptors in rat pancreas (Rattus norvegicus, UniProt P30551)
# Construct: Pancreas was obtained from male Sprague-Dawley rats; from tissue; host or cells: pancreas membranes of male Sprague-Dawley rats
# Sequence (P30551 1-444): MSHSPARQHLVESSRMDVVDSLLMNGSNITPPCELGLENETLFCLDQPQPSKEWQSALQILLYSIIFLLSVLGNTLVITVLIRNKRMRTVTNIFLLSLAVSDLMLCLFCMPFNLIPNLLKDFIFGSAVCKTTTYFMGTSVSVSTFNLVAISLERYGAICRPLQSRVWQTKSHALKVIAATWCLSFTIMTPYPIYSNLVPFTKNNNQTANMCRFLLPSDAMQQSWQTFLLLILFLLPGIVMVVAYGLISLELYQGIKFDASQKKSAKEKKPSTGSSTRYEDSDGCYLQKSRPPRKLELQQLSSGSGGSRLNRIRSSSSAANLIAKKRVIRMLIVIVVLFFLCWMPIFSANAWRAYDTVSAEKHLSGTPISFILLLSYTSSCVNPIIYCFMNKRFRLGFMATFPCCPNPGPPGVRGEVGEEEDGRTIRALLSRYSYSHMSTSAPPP
# method.notes: Binding to peripheral type CCK receptors in rat pancreas (3H-L-364,718)
# test.parameters: at 10 μM; read-out: Pancreas Percent Inhibition

# molecule, system.under.test, inhibition at 10 µM (%)
records = [
    ("O=C1NN(C(=O)c2ccc(C(F)(F)F)cc2)[C@H](c2ccccc2)[C@H]1c1ccccc1 (relative stereo) [Example 74]", "peripheral type CCK receptors in rat pancreas (Rattus norvegicus, UniProt P30551)", 15),
    ("O=C1NN(C(=O)Nc2ccc3c(c2)CCCC3)[C@H](c2ccccc2)[C@H]1c1ccccc1 (relative stereo) [Example 50]", "peripheral type CCK receptors in rat pancreas (Rattus norvegicus, UniProt P30551)", 87),
    ("C[C@H](NC(=O)N1NC(=O)C(c2ccccc2)C1c1ccccc1)c1ccccc1 (stereo partly shown) [Example 101]", "peripheral type CCK receptors in rat pancreas (Rattus norvegicus, UniProt P30551)", 7),
    ("O=C1NN(C(=O)NC2CCCCC2)[C@@H](c2ccccc2)[C@@H]1c1ccccc1 (relative stereo) [Example 95]", "peripheral type CCK receptors in rat pancreas (Rattus norvegicus, UniProt P30551)", 18),
    ("O=C1NN(C(=O)Nc2ccc(F)cc2F)[C@H](c2ccccc2)[C@H]1c1ccccc1 (relative stereo) [Example 56]", "peripheral type CCK receptors in rat pancreas (Rattus norvegicus, UniProt P30551)", 15),
    ("O=C1NN(C(=O)Nc2ccc(Br)cc2)C(c2cccnc2)C1c1ccccc1 (stereo not shown) [Example 135]", "peripheral type CCK receptors in rat pancreas (Rattus norvegicus, UniProt P30551)", 18),
    ("CCCCc1ccc(NC(=O)N2NC(=O)[C@@H](c3ccccc3)[C@@H]2c2ccccc2)cc1 (relative stereo) [Example 28]", "peripheral type CCK receptors in rat pancreas (Rattus norvegicus, UniProt P30551)", 55),
]
